Attribution: PubChem BioAssay (NCI)

Assay: NCI Yeast Anticancer Drug Screen. Data for the sgs1 mgt1 strain (AID 161);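 note: 0% = growth of cultures given vehicle only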
Conditions: S. cerevisiae sgs1 mgt1 strain, at 50.0 µM, hits give high values
This is part of a sample that, as a whole, favours compounds with a hit. Of some 79,000 tested, about 15% had one in any assay.
EXPERIMENTAL_ENDPOINT: growth inhibition (%)
Answer in %, number only, no unit symbol.

[
  {
    "COMPOUND": "Cc1cc(N(CCCl)CCCl)ccc1C=Nc1ccc(-c2csc(Cc3ccccc3)n2)c(Cl)c1",
    "READOUT_UNITS": "%",
    "REPORTED_RESULT": 94.2
  }
]

Please report the recorded growth inhibition for CNC(=O)Oc1cccc(N=CN(C)C)c1 .
0

Please report the recorded growth inhibition for CCC(Cl)COP(=O)(OCC(Cl)CC)O/C(C)=C(\C)OP(=S)(OCC(Cl)CC)OCC(Cl)CC (stereo unspecified) .
93.8

Please report the recorded growth inhibition for CC(=O)CC(C)=O.CC(=O)CC(C)=O.[Mn] .
1.75

Please report the recorded growth inhibition for ClCCN1CCOCC1 .
98.3

Please report the recorded growth inhibition for CCOC(OCC)c1ccccc1 .
-4.95

---

Assay: NCI Yeast Anticancer Drug Screen. Data for the bub3 strain (AID 167)
Settings: S. cerevisiae bub3 mutant strain, at 50.0 µM, hits give high values
Experimental: Growth inhibition of yeast strains with defined genetic alterations is measured as a screen for potential anti-cancer activity. Selected strains with alterations in DNA damage repair or cell cycle control were exposed to compounds and growth inhibition was measured relative to vehicle treated controls. The strain used in this assay is bub3
This is part of a sample that, as a whole, favours compounds with a hit. Of some 79,000 tested, about 15% had one in any assay. Active and inactive are the calls of the source. Cut-off read from the data, not from the text of the source: active = growth inhibition above about 70%; inactive = the rest.
EXPERIMENTAL_ENDPOINT: growth inhibition

[
  {
    "MOLECULE": "O=C(Oc1ccc(S(=O)(=O)F)cc1Cl)c1ccc([N+](=O)[O-])cc1",
    "growth inhibition": "60% (inactive)"
  },
  {
    "MOLECULE": "CCCCCCOC(=O)c1ccccc1C(=O)OCCCCCC",
    "growth inhibition": "-45.2% (inactive)"
  },
  {
    "MOLECULE": "CCCC(Br)C(=O)OCC (stereo not given)",
    "growth inhibition": "0.25% (inactive)"
  },
  {
    "MOLECULE": "c1ccc2c(c1)[O][Sn][O]2",
    "growth inhibition": "99.4% (active)"
  },
  {
    "MOLECULE": "O=[N+]([O-])c1ccc(C#Cc2ccc(N(CCCl)CCCl)cc2)cc1",
    "growth inhibition": "9.2% (inactive)"
  }
]

Please report the recorded growth inhibition for C/C1=C\[C@H](C)C[C@H](C)OC(=O)C[C@H](c2ccc(O)cc2)NC(=O)[C@@H](Cc2c(Br)[nH]c3ccccc23)N(C)C(=O)[C@H](C)NC(=O)[C@@H](C)C1 .
77.1% (active)

Please report the recorded growth inhibition for CNC(=O)C(CC(C)[N+](C)(C)C)(c1ccccc1)c1ccccc1 (stereo not given) .
4.85% (inactive)

Please report the recorded growth inhibition for CC(=O)O[C@H]1CCC2[C@@H]3CCC4c5nonc5CC[C@]4(C)C3CC[C@@]21C (stereo not given in full) .
27.6% (inactive)

Please report the recorded growth inhibition for CCCCNCCc1cccnc1 .
0.8% (inactive)

Please report the recorded growth inhibition for c1ccc2c(c1)sc1sc3ccccc3[n+]12 .
3.2% (inactive)

Please report the recorded growth inhibition for CCC(c1ccc(OC)cc1)C(N)c1ccc(OC)cc1 (stereo not given) .
-4.35% (inactive)

Please report the recorded growth inhibition for CCCC1NCCOC1(O)c1ccccc1 (stereo not given) .
3.35% (inactive)

Please report the recorded growth inhibition for CC(=O)[O][Hg][c]1ccc(N)[c]([Hg][O]C(C)=O)c1 .
99.2% (active)

Please report the recorded growth inhibition for CCC[As](=O)(O)CC(C)C .
-0.4% (inactive)

Please report the recorded growth inhibition for Cc1cc(NN=O)nc(C)n1 .
-1.8% (inactive)

Please report the recorded growth inhibition for O=P(Oc1ccccc1)(Oc1ccccc1)N(CCCl)CCCl .
-19.2% (inactive)

Please report the recorded growth inhibition for COC[C@]12CN(C=O)[C@H]3C4[C@H](OC)[C@H]1C3([C@@H](OC)C[C@H]2O)[C@@H]1C[C@@]2(O)[C@H](OC(=O)c3ccccc3)[C@@H]1[C@]4(OC(C)=O)[C@@H](O)[C@@H]2OC .
0.2% (inactive)

Please report the recorded growth inhibition for Cc1cc(N(C)CCCl)ccc1N=Nc1ccccc1C(=O)O .
23.4% (inactive)

Please report the recorded growth inhibition for C1CCC(NCC2CCCO2)CC1 (stereo not given) .
77.8% (active)

Please report the recorded growth inhibition for C#CC(O)(CC)CC .
38.8% (inactive)

Please report the recorded growth inhibition for COC1C=CC23c4cc5c(cc4COC2(O)CN(C)C3C1)OCO5 (stereo not given) .
-18.9% (inactive)

Please report the recorded growth inhibition for COc1cc2c(cc1O)C(=O)O[C@@H]1CC=C3CCN(C)[C@H]3[C@H]21 .
-37.4% (inactive)

Please report the recorded growth inhibition for CCN1C(=O)C(=C/C=C/C=C2/N(C)c3ccccc3C2(C)C)C(=O)N(CC)C1=S .
0.45% (inactive)

Please report the recorded growth inhibition for O=C1C2C(C(=O)N1c1ccc(Cl)c(Cl)c1)C1(Cl)C(Cl)=C(Cl)C2(Cl)C1(Cl)Cl (stereo not given) .
94.1% (active)
